Settings: in n-hexane, 313.2 K
quantity: solubility (mole fraction)
Answers are plain numbers.

Indicate the recorded solubility (mole fraction) value for this molecule: O=c1c(-c2ccc(O)cc2)coc2cc(O)cc(O)c12
1.14e-05

====

Conditions: in water, 308.2 K
quantity: solubility (mole fraction)
Numbers only.

Indicate the recorded solubility (mole fraction) value for this compound: O=c1c(-c2ccc(O)cc2)coc2cc(O)cc(O)c12
1.25e-07

====

Conditions: in water, 313.2 K
quantity: solubility (mole fraction)
Numbers only.

Indicate the recorded solubility (mole fraction) value for this compound: O=c1c(-c2ccc(O)cc2)coc2cc(O)cc(O)c12
1.67e-07

====

Details: in n-hexane, 298.2 K
quantity: solubility (mole fraction)
Give bare numbers.

Indicate the recorded solubility (mole fraction) value for this compound: O=c1c(-c2ccc(O)cc2)coc2cc(O)cc(O)c12
9e-06

====

Conditions: in chloroform, 303.2 K
quantity: solubility (mole fraction)
One number for each entry.

Indicate the recorded solubility (mole fraction) value for this compound: O=c1c(-c2ccc(O)cc2)coc2cc(O)cc(O)c12
3.6e-06

====

Conditions: in n-hexane, 318.2 K
quantity: solubility (mole fraction)
One number for each entry.

Indicate the recorded solubility (mole fraction) value for this compound: O=c1c(-c2ccc(O)cc2)coc2cc(O)cc(O)c12
1.24e-05

====

Details: in n-hexane, 308.2 K
quantity: solubility (mole fraction)
Answers are plain numbers.

Indicate the recorded solubility (mole fraction) value for this molecule: O=c1c(-c2ccc(O)cc2)coc2cc(O)cc(O)c12
1.09e-05

====

Conditions: in water, 293.2 K
quantity: solubility (mole fraction)
Numbers only.

Indicate the recorded solubility (mole fraction) value for this molecule: O=c1c(-c2ccc(O)cc2)coc2cc(O)cc(O)c12
6.95e-08

====

Settings: in acetone, 318.2 K
quantity: solubility (mole fraction)
Give bare numbers.

Indicate the recorded solubility (mole fraction) value for this compound: O=c1c(-c2ccc(O)cc2)coc2cc(O)cc(O)c12
0.00856

====

Conditions: in methanol, 313.2 K
quantity: solubility (mole fraction)
Give bare numbers.

Indicate the recorded solubility (mole fraction) value for this molecule: O=c1c(-c2ccc(O)cc2)coc2cc(O)cc(O)c12
0.00212

====

Settings: in chloroform, 313.2 K
quantity: solubility (mole fraction)
Numbers only.

Indicate the recorded solubility (mole fraction) value for this molecule: O=c1c(-c2ccc(O)cc2)coc2cc(O)cc(O)c12
4.36e-06

====

Conditions: in n-hexane, 288.2 K
quantity: solubility (mole fraction)
Give bare numbers.

Indicate the recorded solubility (mole fraction) value for this compound: O=c1c(-c2ccc(O)cc2)coc2cc(O)cc(O)c12
6.96e-06

====

Conditions: in ethyl acetate, 313.2 K
quantity: solubility (mole fraction)

Indicate the recorded solubility (mole fraction) value for this molecule: O=c1c(-c2ccc(O)cc2)coc2cc(O)cc(O)c12
0.00367

====

Conditions: in methanol, 323.2 K
quantity: solubility (mole fraction)
One number for each entry.

Indicate the recorded solubility (mole fraction) value for this molecule: O=c1c(-c2ccc(O)cc2)coc2cc(O)cc(O)c12
0.00323

====

Settings: in ethyl acetate, 308.2 K
quantity: solubility (mole fraction)

Indicate the recorded solubility (mole fraction) value for this molecule: O=c1c(-c2ccc(O)cc2)coc2cc(O)cc(O)c12
0.00335

====

Conditions: in ethyl acetate, 303.2 K
quantity: solubility (mole fraction)
Give bare numbers.

Indicate the recorded solubility (mole fraction) value for this compound: O=c1c(-c2ccc(O)cc2)coc2cc(O)cc(O)c12
0.00273
